Task for the reader: assign each of the following variants its reported protein stability index.
B1: ZNF649 (parent)
chain: LTEHKRIHTGKKPHVCSLCGKAFY

Variants of: B1
TEST_SUMMARY: protein stability index of a GFP-peptide fusion (GPS, HEK-293T) (PSI 1-6); higher = more stable;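 note: lentivirally expressed fusions sorted by FACS into six bins by GFP to DsRed ratio, PSI derived from sequencing read proportions per bin multiplied by bin number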
APPLIED_CONDITIONS: c terminus: a fixed tail appended

// for each variant in input: emit protein stability index
1. K5W
2. I7D
3. Y24E
4. A22S
5. C19Q
6. H14Y
7. G20Y
8. C16K

Found:
1. 3.18
2. 2.31
3. 2.82
4. 2.55
5. 2.04
6. 2.63
7. 2.9
8. 2.32

// for each variant in input: emit protein stability index
1. H4Y
2. K5E
3. L1N
4. L18Q
5. E3G
6. E3A

Found:
2.36
3.03
2.81
2.9
1.79
2.47

// for each variant in input: emit protein stability index
1. T9L
2. C19V
3. A22E
4. E3D
5. K21M

Found:
2.51
2.1
2.24
2.71
1.98
